Assay system: cynomolgus Siglec-2/CD22 (Macaca fascicularis)
Measurement description: biochemical
Experimental context: SPR, steady-state analysis; read-out: Affinity cyno CD22
Measurement type: Kd

Smiles structure	Value
C#CCOCCOCCO[C@]1(C(=O)O)C[C@H](O)[C@@H](NC(=O)CO)[C@H]([C@H](O)[C@H](O)CNC(=O)c2cc3c(s2)-c2ccccc2OC3)O1	1 to 10 µM
C#CCOCCOCCO[C@]1(C(=O)O)C[C@H](O)[C@@H](NC(=O)CO)[C@H]([C@H](O)[C@H](O)CNC(=O)Cc2ccc(-c3cccnc3)cc2)O1	> 10 µM
C#CCOCCOCCO[C@]1(C(=O)O)C[C@H](O)[C@@H](NC(=O)CO)[C@H]([C@H](O)[C@H](O)CNC(=O)CC)O1	> 10 µM

Summary line: "C#CCCOc1ccc(CS[C@]2(C(=O)O)C[C@H](O)[C@@H](NC(=O)CO)[C@H]([C@H](O)[C@H](O)CNC(=O)Cc3ccc(O)cc3)O2)cc1" , cynomolgus Siglec-2/CD22 (Macaca fascicularis), reported Kd = 1 to 10 µM

The observed Kd for "C#CCOc1ccc(CO[C@]2(C(=O)O)C[C@H](O)[C@@H](NC(=O)CO)[C@H]([C@H](O)[C@H](O)CNC(=O)Cc3ccc(-c4ccc(F)cc4)cc3)O2)cc1" when tested with cynomolgus Siglec-2/CD22 (Macaca fascicularis) stands at 1 to 10 µM

Bench note, cynomolgus Siglec-2/CD22 (Macaca fascicularis): "CC(=O)NCCOCCOCCOCCOCc1cn(CCCCCCCCO[C@]2(C(=O)O)C[C@H](O)[C@@H](NC(=O)CO)[C@H]([C@H](O)[C@H](O)CNC(=O)Cc3ccc(C(F)F)cc3)O2)nn1" , Kd reads < 1 µM

Tested on cynomolgus Siglec-2/CD22 (Macaca fascicularis), the item "CC(=O)NCCOCCOCCOCCOCc1cn(CCOCCOCCO[C@]2(C(=O)O)C[C@H](O)[C@@H](NC(=O)CO)[C@H]([C@H](O)[C@H](O)CNC(=O)Cc3ccc(-c4ccccc4)cc3)O2)nn1" showed Kd equal to 1 to 10 µM

The recorded Kd with cynomolgus Siglec-2/CD22 (Macaca fascicularis) for "C#CCCOc1ccc(CO[C@]2(C(=O)O)C[C@H](O)[C@@H](NC(=O)CO)[C@H]([C@H](O)[C@H](O)CNC(=O)C3(c4ccccc4)CC3)O2)cc1" was 1 to 10 µM

The recorded Kd with cynomolgus Siglec-2/CD22 (Macaca fascicularis) for "C#CCCCCCCCCO[C@]1(C(=O)O)C[C@H](O)[C@@H](NC(=O)CO)[C@H]([C@H](O)[C@H](O)CNC(=O)Cc2ccc(Cl)cc2)O1" was < 1 µM

Simply: "C#CCOCCOCCO[C@]1(C(=O)O)C[C@H](O)[C@@H](NC(=O)CO)[C@H]([C@H](O)[C@H](O)CNC(=O)Cc2ccc(-c3ccccc3)c(O)c2)O1" , cynomolgus Siglec-2/CD22 (Macaca fascicularis), Kd = > 10 µM

// assay cynomolgus Siglec-2/CD22 (Macaca fascicularis), entry "C#CCOCCOCCNc1c(NCCCCCCO[C@]2(C(=O)O)C[C@H](O)[C@@H](NC(=O)CO)[C@H]([C@H](O)[C@H](O)CNC(=O)c3cccc(F)c3)O2)c(=O)c1=O" , Kd value = 1 to 10 µM

----------
Assay system: human Siglec-2/CD22 protein (Homo sapiens, UniProt P20273)
Sequence (P20273 20-847): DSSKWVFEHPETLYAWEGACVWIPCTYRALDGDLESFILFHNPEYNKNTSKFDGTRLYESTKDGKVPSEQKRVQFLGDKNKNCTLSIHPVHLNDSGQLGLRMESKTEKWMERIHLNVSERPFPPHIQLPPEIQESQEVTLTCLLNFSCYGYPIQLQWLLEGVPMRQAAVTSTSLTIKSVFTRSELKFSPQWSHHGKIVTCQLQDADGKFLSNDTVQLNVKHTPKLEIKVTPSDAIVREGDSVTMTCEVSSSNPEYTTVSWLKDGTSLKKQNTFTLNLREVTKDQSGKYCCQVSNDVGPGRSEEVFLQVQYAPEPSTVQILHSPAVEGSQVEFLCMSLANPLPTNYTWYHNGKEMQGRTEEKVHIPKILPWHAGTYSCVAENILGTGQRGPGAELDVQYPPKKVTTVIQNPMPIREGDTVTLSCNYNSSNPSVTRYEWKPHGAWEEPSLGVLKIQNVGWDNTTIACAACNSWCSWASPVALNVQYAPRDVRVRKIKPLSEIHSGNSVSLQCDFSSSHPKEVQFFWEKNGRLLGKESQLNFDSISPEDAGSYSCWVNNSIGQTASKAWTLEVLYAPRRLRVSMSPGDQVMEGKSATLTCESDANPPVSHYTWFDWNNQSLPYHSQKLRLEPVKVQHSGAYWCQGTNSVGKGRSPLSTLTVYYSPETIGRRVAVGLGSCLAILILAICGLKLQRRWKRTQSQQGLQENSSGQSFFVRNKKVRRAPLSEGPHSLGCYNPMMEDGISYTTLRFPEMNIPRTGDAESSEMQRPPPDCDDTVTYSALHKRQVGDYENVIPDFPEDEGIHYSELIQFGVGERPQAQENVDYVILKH
Measurement description: SPR binding affinity to human CD22
Experimental context: steady-state analysis
Measurement type: Kd

Compound	Kd
CC(=O)NCCOCCOCCOCCOCc1cn(CCCCCCO[C@]2(C(=O)O)C[C@H](O)[C@@H](NC(C)=O)[C@H]([C@H](O)[C@H](O)CNC(=O)Cc3ccc(Cl)cc3)O2)nn1 [Compound 250]	< 1 µM

Kd reported for this compound CC(=O)NCCOCCOCCOCCOCCn1cc(CCCCCCO[C@]2(C(=O)O)C[C@H](O)[C@@H](NC(=O)CO)[C@H]([C@H](O)[C@H](O)CNC(=O)Cc3ccc(Cl)cc3)O2)nn1 [Compound 263] : < 1 µM

Measured Kd of C#CCCOc1ccc(CO[C@]2(C(=O)O)C[C@H](O)[C@@H](NC(=O)CO)[C@H]([C@H](O)[C@H](O)CNC(=O)Cc3ccc(-c4ccccc4)cc3)O2)cc1 [Compound 37] : < 1 µM

Looking up C#CCOCCOCCNc1c(NCCCCCCO[C@]2(C(=O)O)C[C@H](O)[C@@H](NC(=O)CO)[C@H]([C@H](O)[C@H](O)CNC(=O)C(F)(F)c3ccccc3)O2)c(=O)c1=O [Compound 275] , I found its Kd recorded as < 1 µM

Kd reading for C#CCOCCCCCCO[C@]1(C(=O)O)C[C@H](O)[C@@H](NC(=O)NC2CC2)[C@H]([C@H](O)[C@H](O)CNC(=O)Cc2ccc(Cl)cc2)O1 [Compound 89] : 1 to 10 µM

----------
Assay system: cynomolgus Siglec-2/CD22 (Macaca fascicularis, UniProt A0A2K5WCZ6)
Sequence (A0A2K5WCZ6 entry or part of it): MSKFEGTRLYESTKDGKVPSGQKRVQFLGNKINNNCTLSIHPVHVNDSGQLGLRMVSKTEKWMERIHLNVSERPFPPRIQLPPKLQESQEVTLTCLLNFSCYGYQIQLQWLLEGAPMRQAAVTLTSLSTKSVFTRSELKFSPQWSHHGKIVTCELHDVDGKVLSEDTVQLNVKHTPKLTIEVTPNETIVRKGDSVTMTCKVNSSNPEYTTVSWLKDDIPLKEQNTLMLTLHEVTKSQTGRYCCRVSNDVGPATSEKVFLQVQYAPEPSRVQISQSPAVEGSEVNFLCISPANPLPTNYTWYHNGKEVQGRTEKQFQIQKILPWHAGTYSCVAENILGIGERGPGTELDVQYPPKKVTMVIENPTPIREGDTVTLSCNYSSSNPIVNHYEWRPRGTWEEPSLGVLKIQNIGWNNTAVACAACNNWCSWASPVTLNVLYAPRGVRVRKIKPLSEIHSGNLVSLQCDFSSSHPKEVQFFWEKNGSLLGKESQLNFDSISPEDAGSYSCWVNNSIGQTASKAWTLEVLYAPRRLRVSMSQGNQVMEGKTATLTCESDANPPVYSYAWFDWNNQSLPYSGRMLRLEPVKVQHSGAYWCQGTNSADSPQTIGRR
Measurement description: biochemical
Experimental context: SPR, steady-state analysis; read-out: Affinity cyno CD22
Procedure: Prior to immobilization, CD22 proteins were treated with SialoExo (Genovis, Cat #G1-SM1-020) for 4 hours at 37° C. to remove native sialic acid residues. […] Binding experiments of Siglec-ligand conjugated proteins or Siglec ligand compounds were performed on the surfaces prepared above in 10 mM HEPES, 150 mM NaCl, 0.05% Tween-20, pH 7.5, 1% DMSO as the running buffer. […] Data was analyzed using steady-state analysis in Biacore Insight Evaluation Software, version 3.0 for Siglec ligand compounds.
Measurement type: Kd

Example entries and their recorded answers appear below.
Molecule	Measurement type	Value
C#CCOCCCCCCO[C@]1(C(=O)O)C[C@H](O)[C@@H](NC(=O)CO)[C@H]([C@H](O)[C@H](O)CNC(=O)Cc2ccc(C3CC3)cc2)O1	Kd	< 1 µM
C#CCCOc1ccc(CO[C@]2(C(=O)O)C[C@H](O)[C@@H](NC(=O)CO)[C@H]([C@H](O)[C@H](O)CNC(=O)Cc3cccc(N4CCOCC4)c3)O2)cc1	Kd	1 to 10 µM
C#CCOCCCCCCO[C@]1(C(=O)O)C[C@H](O)[C@@H](NC(=S)NC)[C@H]([C@H](O)[C@H](O)CNC(=O)Cc2ccc(Cl)cc2)O1	Kd	1 to 10 µM

Given the molecule "C#CCOCCCCCCO[C@]1(C(=O)O)C[C@H](O)[C@@H](NC(=O)N(C)C)[C@H]([C@H](O)[C@H](O)CNC(=O)Cc2ccc(Cl)cc2)O1" and test system cynomolgus Siglec-2/CD22 (Macaca fascicularis, UniProt A0A2K5WCZ6), the measured Kd is < 1 µM

Measured on cynomolgus Siglec-2/CD22 (Macaca fascicularis, UniProt A0A2K5WCZ6), "O=C(O)CCCCCCCCCCCCCCCO[C@]1(C(=O)O)C[C@H](O)[C@@H](NC(=O)CO)[C@H]([C@H](O)[C@H](O)CNC(=O)Cc2ccc(Cl)cc2)O1" has a documented Kd of < 1 µM

Item: "CC(=O)NCCOCCOCCOCCOCCNC(=O)CCCCCO[C@]1(C(=O)O)C[C@H](O)[C@@H](NC(=O)CO)[C@H]([C@H](O)[C@H](O)CNC(=O)Cc2ccc(Cl)cc2)O1" | System: cynomolgus Siglec-2/CD22 (Macaca fascicularis, UniProt A0A2K5WCZ6) | Kd: < 1 µM

Measured Kd (cynomolgus Siglec-2/CD22 (Macaca fascicularis, UniProt A0A2K5WCZ6)), entry "C#CCCOc1ccc(CO[C@]2(C(=O)O)C[C@H](O)[C@@H](NC(N)=O)[C@H]([C@H](O)[C@H](O)CNC(=O)Cc3ccc(Cl)cc3)O2)cc1" : < 1 µM

Kindly note: cynomolgus Siglec-2/CD22 (Macaca fascicularis, UniProt A0A2K5WCZ6), "C#CCCCCCCO[C@]1(C(=O)O)C[C@H](O)[C@@H](NC(=O)CO)[C@H]([C@H](O)[C@H](O)CNC(=O)Cc2ccc(Cl)cc2)O1" , Kd value reported: < 1 µM

The observed Kd for "C#CCCOc1ccc(CO[C@]2(C(=O)O)C[C@H](O)[C@@H](NC(=O)CO)[C@H]([C@H](O)[C@H](O)CNC(=O)Cc3ccc(-c4ccc(O)cc4)cc3)O2)cc1O" when tested with cynomolgus Siglec-2/CD22 (Macaca fascicularis, UniProt A0A2K5WCZ6) stands at < 1 µM

Short answer on cynomolgus Siglec-2/CD22 (Macaca fascicularis, UniProt A0A2K5WCZ6) for NCC(O)CO[C@]1(C(=O)O)C[C@H](O)[C@@H](NC(=O)CO)[C@H]([C@H](O)[C@H](O)CNC(=O)Cc2ccc(Cl)cc2)O1 (stereo partly shown) , Kd: > 10 µM

Form field, Kd with cynomolgus Siglec-2/CD22 (Macaca fascicularis, UniProt A0A2K5WCZ6), item "C#CCCOc1ccc(CO[C@]2(C(=O)O)C[C@H](O)[C@@H](NC(=O)CO)[C@H]([C@H](O)[C@H](O)CNC(=O)Cc3ccc(-c4ccc(O)cc4)cc3)O2)cc1" : < 1 µM

Item: "C#CCOCCCCCCO[C@]1(C(=O)O)C[C@H](O)[C@@H](NC(=O)COC)[C@H]([C@H](O)[C@H](O)CNC(=O)Cc2ccc(Cl)cc2)O1" | System: cynomolgus Siglec-2/CD22 (Macaca fascicularis, UniProt A0A2K5WCZ6) | Kd: 1 to 10 µM

Entry "CC(=O)NCCOCCOCCOCCOCCNC(=O)CCOCCO[C@]1(C(=O)O)C[C@H](O)[C@@H](NC(=O)CO)[C@H]([C@H](O)[C@H](O)CNC(=O)Cc2ccc(-c3ccccc3)cc2)O1" , tested on cynomolgus Siglec-2/CD22 (Macaca fascicularis, UniProt A0A2K5WCZ6), has a reported Kd of 1 to 10 µM

Observed Kd, cynomolgus Siglec-2/CD22 (Macaca fascicularis, UniProt A0A2K5WCZ6), "C#CCN(CC(=O)O)C(=O)CCCO[C@]1(C(=O)O)C[C@H](O)[C@@H](NC(=O)CO)[C@H]([C@H](O)[C@H](O)CNC(=O)Cc2ccc(Cl)cc2)O1" : 1 to 10 µM

Measured Kd for this entry "C#CCOCCCCCCO[C@]1(C(=O)O)C[C@H](O)[C@@H](NC(=O)COc2ccccc2)[C@H]([C@H](O)[C@H](O)CNC(=O)Cc2ccc(Cl)cc2)O1" on cynomolgus Siglec-2/CD22 (Macaca fascicularis, UniProt A0A2K5WCZ6): < 1 µM

Query "C#CCOCCOCCO[C@]1(C(=O)O)C[C@H](O)[C@@H](NC(=O)CO)[C@H]([C@H](O)[C@H](O)CNC(=O)c2ccc(-c3ccc(O)cc3)cc2)O1" on cynomolgus Siglec-2/CD22 (Macaca fascicularis, UniProt A0A2K5WCZ6); Kd returned: 1 to 10 µM

So the reported Kd for "C#CCOCCCCCCO[C@]1(C(=O)O)C[C@H](O)[C@@H](NC(=O)CO)[C@H]([C@H](O)[C@H](O)CNC(=O)Cc2ccc(C(C)(C)C)cc2)O1" , on cynomolgus Siglec-2/CD22 (Macaca fascicularis, UniProt A0A2K5WCZ6), turned out to be < 1 µM

Bench note, cynomolgus Siglec-2/CD22 (Macaca fascicularis, UniProt A0A2K5WCZ6): entry "C#CCOCCCCCCO[C@]1(C(=O)O)C[C@H](O)[C@@H](NC(=O)Cc2nn[nH]n2)[C@H]([C@H](O)[C@H](O)CNC(=O)Cc2ccc(Cl)cc2)O1" , its Kd = < 1 µM
